Hi there, I'd appreciate the recorded TGI for every entry that follows.
Test system: HL-60(TB) leukemia
Experiment: NCI tumour cell line growth inhibition, 48 h

[
  {
    "molecule": "COc1ccc(C2CC(c3cc(Cl)c(C)cc3O)=NN2c2ccc(S(N)(=O)=O)cc2)cc1OC (stereo unspecified)",
    "target-entity": "HL-60(TB) leukemia",
    "observed-value": "> 100 µM"
  }
]

Hey, can you go through the list below and give me TGI for every item?
1. COC(=O)c1cc(-c2ccc(OC)c(OC)c2)oc1-c1ccc(OC)c(OC)c1
2. N#C/C(=C\c1cc(F)cc(F)c1)c1ccccn1
3. OCc1nnn2c1CCC2
4. O=C(CCCn1cnc([N+](=O)[O-])n1)NCCCn1ccnc1[N+](=O)[O-]

1: > 100 µM; 2: > 10 µM; 3: > 100 µM; 4: > 100 µM

# map each molecule to its TGI
1. Cc1c2ccccc2cc2nc3ccccc3n12
2. CN(C)c1ccc(/C=C/c2nc3ccccc3s2)cc1
3. CCCCc1ccc(-n2c(C)c(COC(=O)NC)c(COC(=O)NC)c2C)cc1
4. NC(N)=NS(=O)(=O)c1ccc(Nc2c3ccccc3nc3c(C(=O)NNCCO)cccc23)cc1
5. NN/C(=N\S(=O)(=O)c1cc2ccccc2o1)Nc1ccc(Cl)cc1
6. CCOC(=O)CCC(C(=O)OCC)n1nnc2ccc(Nc3c(C)[n+]([O-])c4ccc(Cl)cc4[n+]3[O-])cc21 (stereo unspecified)

1. > 10 µM
2. > 100 µM
3. 24.4 µM
4. 0.671 µM
5. > 100 µM
6. > 100 µM
